Data provenance is patent EP4768499A1.

- experimental protocol: Membrane permeability test using Caco-2 cells with preincubation
- Assay type: in vitro ADME
- test context: Caco-2; preincubation 20 to 24 hours; Apical FaSSIF/HBSS pH 6.0, Basal HBSS 4% BSA pH 7.4; 180 minutes; read-out: Caco2 Papp
Positions of bridges follow the written chain, without caps; N, C: chain ends. Non-standard residues stand in square brackets, D forms with d. Residues, ends and D or L forms follow the SMILES beside them. *: point of attachment. NMeF = CN[C@@H](Cc1ccccc1)C(=O)O; NMeT = CN[C@H](C(=O)O)[C@@H](C)O; NMeD = CN[C@@H](CC(=O)O)C(=O)O; NMeL = CN[C@@H](CC(C)C)C(=O)O; NMeV = CN[C@H](C(=O)O)C(C)C; d(β3hA) = C[C@@H](N)CC(=O)O; NMeAbu = CC[C@H](NC)C(=O)O; NMeA = CN[C@@H](C)C(=O)O; Piperidide = C1CCN(*)CC1; Abu = CC[C@H](N)C(=O)O; Sar = CNCC(=O)O; tBu = CC(C)(C)*
readout label: Papp A→B (×10⁻⁶ cm/s)
# value in ×10⁻⁶ cm/s; strip the unit string

stdin: Param item = CC[C@@H]1NC(=O)[C@H](Cc2ccccc2)N(C)C(=O)[C@H](COC(C)(C)C)NC(=O)[C@H](CC(C)C)N(C)C(=O)[C@H](CC(C)C)NC(=O)[C@H](C)N(C)C(=O)C[C@@H](C(=O)N2CCCCC2)N(C)C(=O)[C@H](CC(C)C)N(C)C(=O)[C@H]([C@@H](C)CC)NC(=O)[C@H](Cc2ccccc2)N(C)C(=O)[C@H]([C@@H](C)O)N(C)C(=O)[C@H](CC)N(C)C(=O)[C@H](CC(C)C)NC(=O)CN(C)C1=O [pd091] ([NMeA]L[NMeL]S(tBu)[NMeF][Abu][Sar]L[NMeAbu][NMeT][NMeF]I[NMeL][NMeD]-Piperidide; lactam N-14) ; retrieve measured Papp A→B.
stdout: 0.11

stdin: What do we get for CC[C@H](C)[C@@H]1NC(=O)[C@H](CC(C)C)N(C)C(=O)C[C@@H](C)NC(=O)[C@H](C(C)C)N(C)C(=O)[C@H](COC(C)(C)C)NC(=O)[C@H](CC)N(C)C(=O)[C@H](Cc2ccccc2)N(C)C(=O)[C@H](CC(C)C)NC(=O)[C@@H]2CCCN2C(=O)[C@H]([C@@H](C)O)N(C)C(=O)[C@H](CC(C)C)N(C)C(=O)[C@H](CC)N(C)C(=O)[C@H](CC(C)C)N(C)C1=O [pd139] (cyclo(I[NMeL][NMeAbu][NMeL][NMeT]PL[NMeF][NMeAbu]S(tBu)[NMeV][d(β3hA)][NMeL])) ?
stdout: 1.24

###

- experimental protocol: Membrane permeability test using Caco-2 cells with preincubation
- Format: in vitro ADME
- test context: Caco-2; preincubation 20 to 24 hours; Apical FaSSIF/HBSS pH 6.0, Basal HBSS 4% BSA pH 7.4; 180 minutes; read-out: Caco2 Papp
Starred links: 1 amine or outer side, 2 acyl side, 3 side chain; linkers in the order of their positions; H or OH if unused. Positions of bridges follow the written chain, without caps; N, C: chain ends. Non-standard residues stand in square brackets, D forms with d. Residues, ends and D or L forms follow the SMILES beside them. *: point of attachment. NMedβ3hAla = C[C@H](CC(=O)[*:2])N(C)[*:1]; NMeF = CN[C@@H](Cc1ccccc1)C(=O)O; NMeI = CC[C@H](C)[C@H](NC)C(=O)O; hPhe = N[C@@H](CCc1ccccc1)C(=O)O; NMeβAla = CN(CCC(=O)[*:2])[*:1]; NMeL = CN[C@@H](CC(C)C)C(=O)O; NMeA = CN[C@@H](C)C(=O)O; Piperidide = C1CCN(*)CC1; Sar = CNCC(=O)O; tBu = CC(C)(C)*
Kindly supply the reported Papp A→B values for the records listed here.
# value in ×10⁻⁶ cm/s; strip the unit string

stdin: Param item = CC[C@H](C)[C@@H]1NC(=O)[C@H](CC(C)C)N(C)C(=O)[C@H](CC(C)C)NC(=O)CCN(C)C(=O)C[C@@H](C)N(C)C(=O)CN(C)C(=O)[C@H](CC(C)C)N(C)C(=O)[C@@H]2CCCN2C(=O)[C@H](CC(C)C)N(C)C(=O)[C@H](COC(C)(C)C)NC(=O)[C@H]([C@@H](C)CC)N(C)C(=O)[C@H](CCc2ccccc2)NC(=O)[C@H](Cc2ccccc2)N(C)C1=O [pd142] (cyclo(I[NMeF][hPhe][NMeI]S(tBu)[NMeL]P[NMeL][Sar][NMedβ3hAla][NMeβAla]L[NMeL])) ; retrieve measured Papp A→B.
stdout: 0.71

stdin: What do we get for CC[C@H](C)[C@@H]1NC(=O)[C@H](C)N(C)C(=O)[C@H]([C@@H](C)O)NC(=O)[C@H](Cc2ccccc2)N(C)C(=O)[C@H](COC(C)(C)C)NC(=O)[C@H](CC(C)C)N(C)C(=O)[C@H](C(C)C)NC(=O)CN(C)C(=O)[C@H](Cc2ccccc2)N(C)C(=O)[C@H]([C@@H](C)CC)NC(=O)[C@H](CC(C)C)N(C)C(=O)CCN(C)C(=O)C[C@@H](C(=O)N2CCCCC2)NC(=O)[C@H](CC(C)C)N(C)C1=O [pd034] ([NMeβAla][NMeL]I[NMeF][Sar]V[NMeL]S(tBu)[NMeF]T[NMeA]I[NMeL]D-Piperidide; lactam N-14) ?
stdout: 0.27
